# Test system: SW-620 colon
# procedure summary: NCI-60 one-dose screen, 48 h (100 = growth as untreated, 0 = no growth, -100 = all killed)
# assay context: 10 µM unless noted
About 83,000 compounds went through this panel and 20% of them were active in at least one assay; those are over-represented in the sample as a whole. Activity calls are given as the source filed them. The calls were made as follows: active = growth percent below 10; inactive = the rest.
observation type: growth

[[record]]
compound = "COc1cccc(/C=N/Nc2nc3ccccc3s2)c1OC"
observation_type = "growth"
observed = "96.7% (inactive)"


Ask: Sample CCOC(=O)C1=CCC(n2cc(C)c(=O)[nH]c2=O)O1 (configuration not stated) — what was its growth?
Reply: 105% (inactive)

Ask: // same read-out, input: O=C(Oc1ccccc1)C(Br)C(Br)c1ccccc1 (configuration not stated)
Reply: -77% (active)

Ask: Please do the same for Oc1ccccc1/C=N/N1CCCCCC1 as well.
Reply: 108% (inactive)

Ask: CC(C)Sc1nc(Cl)c(C#N)c(-c2ccc(F)cc2)n1 ?
Reply: 72.2% (inactive)

Ask: Can you handle CCOC(=O)CNC(=O)C1(NC(=O)CNC(=O)OCc2ccccc2)CCCC1 next?
Reply: 110% (inactive)

Ask: Field entry: COc1cccc(-c2nc(-c3ccc(N)cc3)co2)c1
Reply: 113% (inactive)

Ask: Next compound up: COc1ccc(C(=O)COc2ccc(/C=C3\Oc4ccc5ccccc5c4C3=O)cc2)cc1
Reply: 94.6% (inactive)

Ask: Now the same for CCOC(=O)c1sc(NC(=O)COc2cccc(/C=C3\Cc4ccc(Cl)cc4C3=O)c2)nc1C
Reply: 94.6% (inactive)

Ask: Subsequent entry: CC1C(C)N(C(=O)CCl)c2ccccc2N1C(=O)CCl (configuration not stated)
Reply: -81.7% (active)

Ask: Also Cc1cc(Br)c(C)cc1Br , if possible.
Reply: 108% (inactive)

Ask: Entry to check: CN1CCN(CCCCCN=c2cc3c(=O)n(CCCCCN4CCN(C)CC4)c(=O)c4c(NCCCCCN5CCN(C)CC5)cc5c(O)n(CCCCCN6CCN(C)CC6)c(=O)c2c5c4-3)CC1
Reply: 21.9% (inactive)
